Molecular target: MLK1/MAP3K9 (Homo sapiens, UniProt P80192)
Construct: purchased Reaction Biology Corp
Sequence (P80192 whole entry): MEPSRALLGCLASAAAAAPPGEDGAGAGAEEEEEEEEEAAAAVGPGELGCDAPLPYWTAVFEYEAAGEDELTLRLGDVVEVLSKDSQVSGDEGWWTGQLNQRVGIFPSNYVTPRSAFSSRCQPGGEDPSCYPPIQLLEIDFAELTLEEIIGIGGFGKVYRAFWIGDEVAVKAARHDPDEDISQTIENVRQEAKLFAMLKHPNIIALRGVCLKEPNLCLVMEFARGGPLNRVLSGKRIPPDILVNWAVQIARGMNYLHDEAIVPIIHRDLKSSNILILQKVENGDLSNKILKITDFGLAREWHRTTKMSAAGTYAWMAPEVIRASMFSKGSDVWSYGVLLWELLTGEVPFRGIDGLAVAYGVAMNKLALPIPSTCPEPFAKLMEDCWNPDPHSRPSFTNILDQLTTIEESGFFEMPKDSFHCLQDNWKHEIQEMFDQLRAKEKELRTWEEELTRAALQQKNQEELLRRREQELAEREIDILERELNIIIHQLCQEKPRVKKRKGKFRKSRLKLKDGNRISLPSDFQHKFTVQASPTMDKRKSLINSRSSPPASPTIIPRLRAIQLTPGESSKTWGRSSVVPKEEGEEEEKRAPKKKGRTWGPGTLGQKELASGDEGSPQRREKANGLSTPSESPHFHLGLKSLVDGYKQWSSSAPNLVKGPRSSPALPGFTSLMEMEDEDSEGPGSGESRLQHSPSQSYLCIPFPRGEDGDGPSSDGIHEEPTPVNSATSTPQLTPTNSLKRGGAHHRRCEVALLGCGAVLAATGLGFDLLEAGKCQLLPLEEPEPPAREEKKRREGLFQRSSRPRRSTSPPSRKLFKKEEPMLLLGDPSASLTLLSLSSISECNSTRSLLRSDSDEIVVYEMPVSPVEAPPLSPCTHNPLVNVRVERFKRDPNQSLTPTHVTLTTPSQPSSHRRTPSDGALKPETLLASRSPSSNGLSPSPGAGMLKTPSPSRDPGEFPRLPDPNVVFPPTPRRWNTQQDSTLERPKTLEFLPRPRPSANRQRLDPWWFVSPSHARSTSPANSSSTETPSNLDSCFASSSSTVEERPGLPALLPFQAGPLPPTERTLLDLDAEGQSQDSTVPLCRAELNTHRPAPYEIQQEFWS
Experiment: Radiolabeled ATP kinase assay (Reaction Biology Corp.), MLK1
Format: biochemical
Conditions: [Cmpd] 0.1 μM; 10 μM ATP; read-out: % Enzyme Activity Remaining (relative to DMSO controls), MLK1/MAP3K9, Data 1
experimental.readout: remaining activity at 0.1 µM

Example cases with answers are listed next.
> print(dat)
                         structure.notation  observed.measurement
1  CN1CCN(Cc2ccc(-c3cnc4[nH]cc(-c5ccc(N)nc5)c4c3)cc2)CC1                 96.7%
2  COc1cc(-c2c[nH]c3ncc(-c4ccc(CN5CCN(C)CC5)cc4)cc23)cc(OC)c1OC                 54.2%

Request: State, in one line, measured remaining activity at 0.1 µM of CN1CCN(Cc2ccc(-c3cnc4[nH]cc(-c5ccc(Cl)cc5Cl)c4c3)cc2)CC1
Response: 92.5%

Request: Note down remaining activity at 0.1 µM recorded for CN1CCN(Cc2ccc(-c3cnc4[nH]cc(-c5ccc(F)c(C(=O)NCc6ccco6)c5)c4c3)cc2)CC1
Response: 86%

Request: Recall and state the measured remaining activity at 0.1 µM for COc1ccc(-c2c[nH]c3ncc(-c4ccc(CN5CCN(C)CC5)cc4)cc23)cc1C .
Response: 54.5%

Request: Dear colleague, please send me the reported remaining activity at 0.1 µM for CNC(=O)Nc1cccc(-c2c[nH]c3ncc(-c4ccc(CN5CCN(C)CC5)cc4)cc23)c1 when you can.
Response: 34.2%

Request: Specify reported remaining activity at 0.1 µM for the compound shown: CN1CCN(Cc2ccc(-c3cnc4[nH]cc(-c5cccc6[nH]ncc56)c4c3)cc2)CC1
Response: 52.9%

Request: Provide one value: measured remaining activity at 0.1 µM of CN1CCN(Cc2ccc(-c3cnc4[nH]cc(-c5ccc(OC(F)(F)F)cc5)c4c3)cc2)CC1
Response: 98.6%
